# System: Rattus norvegicus
# Protocol Summary: Urinary iron excretion was measured after giving oral dose of 1 mmol/kg during treatment period in rat
# Type: functional, Urine
Measured urinary iron excretion accompanies every entry in the list below.
A number alone suffices; assume µg/15 h.

Known urinary iron excretion results, listed for orientation:
[
  {
    "Compound": "Cc1c(O)c(=O)ccn1-c1ccc(C(=O)O)cc1",
    "Measured Value": 1110
  },
  {
    "Compound": "Cc1c(O)c(=O)ccn1C(Cc1ccccc1)C(=O)O (stereo not drawn)",
    "Measured Value": 1280
  },
  {
    "Compound": "Cc1c(O)c(=O)ccn1Cc1ccc(C(=O)O)cc1",
    "Measured Value": 1550
  }
]

GET /value?item= Cc1c(O)c(=O)ccn1C(CO)C(=O)O (stereo not drawn) &field=urinary iron excretion returns 1790

GET /value?item= Cc1c(O)c(=O)ccn1C [DEFERIPRONE] &field=urinary iron excretion returns 17300

GET /value?item= Cc1c(O)c(=O)ccn1C(CCC(=O)O)C(=O)O (stereo not drawn) &field=urinary iron excretion returns 170

GET /value?item= Cc1c(O)c(=O)ccn1C(CC(C)C)C(=O)O (stereo not drawn) &field=urinary iron excretion returns 8550

GET /value?item= CSCCC(C(=O)O)n1ccc(=O)c(O)c1C (stereo not drawn) &field=urinary iron excretion returns 1740
